CC-v2 reference
Target: Human ALDH3A1 (Homo sapiens, UniProt P30838)
Assay: ALDH3A1 biochemical assay (benzaldehyde/NADP+, diaphorase-resazurin readout, 1,536-well)
Conditions: Table S1, primary screen; curve class
Reply with the value as a number alone.

// worked examples, CC-v2 included
CCOc1ccc(C(=O)NC2CCN(c3cc(-c4ccc(OC)cc4)n[nH]3)C2)cc1OCC (centres unmarked)    -1.4
COCCNC(=O)c1ccc2c(c1)N(C)C(CC(=O)NCC(C)C)CO2 (centres unmarked)    -3
C=CCOc1c(OC)ccc2c1CN(Cc1ccccc1)C(=O)CCN2CC(O)COc1ccc(OC)cc1 (centres unmarked)    -1.4
Cc1ccc2nc(CN3CCC(c4cccc(C#N)c4)CC3)cc(O)c2c1    -1.2
COc1ccc(CCN2Cc3cc(NC(=O)Cc4cccs4)ccc3OCC2=O)cc1    -2.4
CCCNC(=O)N1CC(Oc2ccc(-c3nc(C)no3)cc2)C1    -2.2

Entry under test: CCn1nc(C)c(CNC(=O)c2cc(COc3ccc4ncccc4c3)on2)c1C . Its CC-v2 was -2.2

Entry under test: COc1ccc(CNc2cc3c(cn2)CN(Cc2ccccc2)CCN3)cc1OC . Its CC-v2 was -2.2

Entry under test: NC(=O)[C@H](Cc1ccc(O)cc1)NC(=O)[C@@]1(O)C[C@@H](O)[C@H](O)[C@@H](NC(=O)c2ccc(F)c(Cl)c2)C1 . Its CC-v2 was -2.4

Entry under test: Cc1cc(C)c(C)c([S+](=O)([O-])NCCC(=O)N2CCc3[nH]c(=O)c(C#N)cc3C2)c1C . Its CC-v2 was -2.2

Entry under test: CC(=O)Nc1ccc(CN2CC(Oc3ccc4c(c3)OCO4)C2)cc1 . Its CC-v2 was -1.4

* * *

Target: Human ALDH3A1 (Homo sapiens)
Sequence (P30838 1-453): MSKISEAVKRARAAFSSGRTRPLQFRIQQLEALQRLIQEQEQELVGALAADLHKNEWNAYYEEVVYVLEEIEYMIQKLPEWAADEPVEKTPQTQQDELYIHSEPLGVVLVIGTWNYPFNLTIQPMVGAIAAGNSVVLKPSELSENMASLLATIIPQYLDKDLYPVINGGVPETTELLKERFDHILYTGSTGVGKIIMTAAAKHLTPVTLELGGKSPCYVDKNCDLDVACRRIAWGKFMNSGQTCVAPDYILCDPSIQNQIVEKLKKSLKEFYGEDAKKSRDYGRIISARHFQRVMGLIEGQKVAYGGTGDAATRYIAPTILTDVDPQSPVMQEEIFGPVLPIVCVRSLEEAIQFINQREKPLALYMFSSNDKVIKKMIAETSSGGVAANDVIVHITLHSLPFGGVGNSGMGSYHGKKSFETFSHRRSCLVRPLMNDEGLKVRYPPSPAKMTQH
Assay: ALDH3A1 biochemical assay (benzaldehyde/NADP+, diaphorase-resazurin readout, 1,536-well)
Settings: Table S5, biochemical
experimental endpoint: Efficacy
Reply with the value as a number alone.

// worked examples, Efficacy included
COc1cc(C)cc(CNC(=O)c2csc(N3CCN(c4cccc(C(F)(F)F)c4)CC3)n2)c1    -100.75
Cc1ccc(CNC(=O)c2csc(N3CCN(c4cccc(C(F)(F)F)c4)CC3)n2)cc1C(F)(F)F    -88.60

Entry under test: Cc1ccccc1-c1cccc(CNC(=O)c2csc(N3CCN(c4cccc(C(F)(F)F)c4)CC3)n2)c1 . Its Efficacy was -78.48

* * *

Target: OE19 (3A1) (Homo sapiens)
Assay: Cellular ALDEFLUOR assay in OE19 cells (preferential ALDH3A1 expression)
Details: Table S4, OE19 cells
Cell_Efficacy reference
Reply with the value as a number alone.

// worked examples, Cell_Efficacy included
Cc1cccc(CNC(=O)c2csc(N3CCN(c4cccc([S+](=O)([O-])C(F)(F)F)c4)CC3)n2)c1    -81.37
Cc1cccc(CNC(=O)c2csc(N3CCN(c4cccc(Sc5ccc(C)cc5C)c4)CC3)n2)c1    -95.63
Cc1cccc(CNC(=O)c2csc(N3CCN(c4ccc(Cl)cn4)CC3)n2)c1    -68.27
Cc1cccc(CNC(=O)c2csc(N3CCN(c4ncccc4C(F)(F)F)CC3)n2)c1    -81.56
COc1ccc(N2CCN(c3nc(C(=O)NCc4cccc(C)c4)cs3)CC2)cc1O    -88.85
CCOC(=O)Cc1ccc(N2CCN(c3nc(C(=O)NCc4cccc(C)c4)cs3)CC2)cc1    -80.26
Cc1cccc(CNC(=O)c2csc(N3CCN(c4cccc(C)c4)CC3)n2)c1    -101.59
Cc1cccc(CNC(=O)c2csc(N3CCN(c4ccccc4Br)CC3)n2)c1    -81.02

Next compound, please.
Entry under test: Cc1cccc(CNC(=O)c2csc(N3CCN(c4cccc([S+](C)(=O)[O-])c4)CC3)n2)c1 . Its Cell_Efficacy was -75.10

* * *

Efficacy reference
Molecular target: Human ALDH3A1 (Homo sapiens)
Sequence (P30838 1-453): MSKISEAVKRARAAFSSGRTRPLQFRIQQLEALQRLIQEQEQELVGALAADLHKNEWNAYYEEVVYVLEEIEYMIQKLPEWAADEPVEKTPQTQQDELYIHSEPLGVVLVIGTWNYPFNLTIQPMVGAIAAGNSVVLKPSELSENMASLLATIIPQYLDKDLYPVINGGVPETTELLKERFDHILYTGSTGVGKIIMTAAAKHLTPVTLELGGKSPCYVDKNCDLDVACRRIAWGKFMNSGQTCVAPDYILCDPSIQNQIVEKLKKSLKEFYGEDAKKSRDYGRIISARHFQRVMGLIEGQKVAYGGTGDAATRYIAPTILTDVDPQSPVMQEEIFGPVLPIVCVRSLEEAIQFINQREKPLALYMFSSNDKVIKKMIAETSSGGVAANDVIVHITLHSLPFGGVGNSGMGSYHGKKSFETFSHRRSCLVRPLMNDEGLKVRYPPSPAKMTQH
Assay: ALDH3A1 biochemical assay (benzaldehyde/NADP+, diaphorase-resazurin readout, 1,536-well)
Settings: Table S1, primary screen
Reply with the value as a number alone.

O=C(NCC(F)(F)F)c1cc(C2CCN(C(=O)c3cc(-c4ccco4)n[nH]3)CC2)n[nH]1 [NCGC00528999-01]    -59.29
COc1ccc(NC2CCCN(C(=O)c3cn(CCCN)nn3)C2)cc1 (stereo not shown) [NCGC00439852-01]    -61.76
COCc1noc(-c2ccc(NC[C@H]3CCc4ccccc4O3)nc2)n1 [NCGC00428876-01]    -39.16

Next molecule, please.
Entry under test: CNCc1cn(C[C@H]2O[C@@H](CC(=O)NCc3ccc(F)cc3)[C@H](O)[C@@H]2O)nn1 [NCGC00400077-01] . Its Efficacy was -39.06

* * *

AC50 reference
Target: Human ALDH3A1 (Homo sapiens, UniProt P30838)
Sequence (P30838 1-453): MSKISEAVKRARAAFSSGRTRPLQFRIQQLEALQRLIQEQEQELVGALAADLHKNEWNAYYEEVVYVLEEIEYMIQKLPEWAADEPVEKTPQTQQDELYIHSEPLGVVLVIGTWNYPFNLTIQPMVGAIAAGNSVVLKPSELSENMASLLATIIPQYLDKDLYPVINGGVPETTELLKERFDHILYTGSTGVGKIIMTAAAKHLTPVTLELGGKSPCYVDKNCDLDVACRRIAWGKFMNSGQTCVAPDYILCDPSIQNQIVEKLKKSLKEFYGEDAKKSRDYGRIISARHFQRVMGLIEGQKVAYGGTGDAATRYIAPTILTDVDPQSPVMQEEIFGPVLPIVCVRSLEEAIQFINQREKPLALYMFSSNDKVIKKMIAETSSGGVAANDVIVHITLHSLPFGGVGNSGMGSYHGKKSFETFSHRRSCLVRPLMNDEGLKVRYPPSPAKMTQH
Test: ALDH3A1 biochemical assay (benzaldehyde/NADP+, diaphorase-resazurin readout, 1,536-well)
Answer format: numeric, nM implied, no suffix.

Cc1cccc(CNC(=O)c2csc(N3CCN(c4c(F)cccc4F)CC3)n2)c1    910
O=C(NCc1cccc(C2CC2)c1)c1csc(N2CCN(c3cccc(C(F)(F)F)c3)CC2)n1    1.1
Cc1cccc(CNC(=O)c2csc(N3CCN(c4cccc([S+](C)(=O)[O-])c4)CC3)n2)c1    3640

Next compound, please.
Entry under test: COc1ccc(CNc2cc3c(cn2)CN(Cc2ccccc2)CCN3)cc1OC . Its AC50 was 14100

* * *

Biological target: Human ALDH3A1 (Homo sapiens, UniProt P30838)
Experiment: ALDH3A1 biochemical assay (benzaldehyde/NADP+, diaphorase-resazurin readout, 1,536-well)
Conditions: Table S4, biochemical curve class
CC-v2 reference
Reply with the value as a number alone.

Entry under test: Cc1cccc(CNC(=O)c2csc(N3CCN(c4ccccc4Br)CC3)n2)c1 . Its CC-v2 was -1.1

Entry under test: Cc1cccc(CNC(=O)c2csc(N3CCN(c4cccc(OC(F)(F)F)c4)CC3)n2)c1 . Its CC-v2 was -1.1

Entry under test: COc1c(F)cc(N2CCN(c3nc(C(=O)NCc4cccc(C)c4)cs3)CC2)cc1F . Its CC-v2 was -1.2

Entry under test: Cc1cccc(CNC(=O)c2csc(N3CCN(c4cccc(O)c4)CC3)n2)c1 . Its CC-v2 was -1.2

Entry under test: CCc1ccc(N2CCN(c3nc(C(=O)NCc4cccc(C)c4)cs3)CC2)cc1 . Its CC-v2 was -1.1
